# PROTOCOL SUMMARY: Volume of distribution at steady state in Beagle dog at 3 mg/kg, po or 0.46 mg/kg, iv after 48 hrs by LC-MS/MS analysis
# Type: ADME, organism-based, Canis lupus familiaris
# EXPERIMENTAL SETUP: in vivo, read-out: Vdss

TEST SMILES	Vd [L/kg]
COc1nc(C(=O)NC[C@](C)(O)C(F)(F)F)c(N)cc1C(F)(F)F	7.5

###

# TESTED SYSTEM: Cystic fibrosis transmembrane conductance regulator (Homo sapiens, UniProt P13569, F508DEL)
# Sequence (P13569 as listed by the source): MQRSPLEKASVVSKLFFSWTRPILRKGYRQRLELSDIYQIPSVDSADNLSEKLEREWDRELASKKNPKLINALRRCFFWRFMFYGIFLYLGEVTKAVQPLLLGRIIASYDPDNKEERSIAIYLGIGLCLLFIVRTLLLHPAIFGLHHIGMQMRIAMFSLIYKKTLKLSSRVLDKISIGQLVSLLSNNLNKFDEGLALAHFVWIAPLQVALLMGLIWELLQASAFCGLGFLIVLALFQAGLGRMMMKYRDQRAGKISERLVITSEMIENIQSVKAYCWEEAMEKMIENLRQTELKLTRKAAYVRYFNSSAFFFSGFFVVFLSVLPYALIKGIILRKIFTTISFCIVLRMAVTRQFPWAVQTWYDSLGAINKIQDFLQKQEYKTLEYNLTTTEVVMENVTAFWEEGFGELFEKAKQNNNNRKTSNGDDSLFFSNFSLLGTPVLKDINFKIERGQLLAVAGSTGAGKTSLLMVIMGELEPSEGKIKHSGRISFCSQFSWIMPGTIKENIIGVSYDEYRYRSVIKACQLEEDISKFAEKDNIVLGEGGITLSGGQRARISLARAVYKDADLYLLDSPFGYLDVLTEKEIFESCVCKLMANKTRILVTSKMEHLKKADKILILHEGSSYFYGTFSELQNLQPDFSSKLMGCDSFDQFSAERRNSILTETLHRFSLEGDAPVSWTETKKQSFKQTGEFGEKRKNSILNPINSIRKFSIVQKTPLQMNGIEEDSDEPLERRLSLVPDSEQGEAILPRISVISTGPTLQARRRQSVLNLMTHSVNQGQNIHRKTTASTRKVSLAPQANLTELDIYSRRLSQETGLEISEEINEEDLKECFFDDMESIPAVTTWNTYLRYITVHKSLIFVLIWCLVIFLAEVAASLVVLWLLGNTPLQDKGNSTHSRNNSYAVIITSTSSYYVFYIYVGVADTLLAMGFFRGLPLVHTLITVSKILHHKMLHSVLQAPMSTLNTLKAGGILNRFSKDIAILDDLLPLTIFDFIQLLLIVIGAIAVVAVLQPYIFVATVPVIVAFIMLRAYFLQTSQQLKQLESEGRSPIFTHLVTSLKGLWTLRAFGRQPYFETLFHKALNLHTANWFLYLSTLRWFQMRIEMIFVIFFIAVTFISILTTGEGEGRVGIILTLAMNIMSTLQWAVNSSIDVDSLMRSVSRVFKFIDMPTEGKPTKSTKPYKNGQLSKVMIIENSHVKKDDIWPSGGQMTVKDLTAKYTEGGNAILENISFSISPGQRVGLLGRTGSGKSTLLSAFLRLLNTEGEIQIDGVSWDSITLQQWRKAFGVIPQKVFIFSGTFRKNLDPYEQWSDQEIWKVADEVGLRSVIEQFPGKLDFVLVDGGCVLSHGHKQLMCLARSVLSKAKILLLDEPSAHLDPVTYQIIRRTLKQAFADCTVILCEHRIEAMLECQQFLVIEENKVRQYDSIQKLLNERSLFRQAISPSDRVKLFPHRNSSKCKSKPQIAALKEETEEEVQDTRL
# PROTOCOL SUMMARY: Potentiation of CFTR F508del mutant (unknown origin) expressed in CHO cells assessed as chloride transport by measuring membrane potential incubated for 5 to 30 mins in presence of forskolin by Quattro assay
# Type: cell-based
pEC50: −log10 of the molar value.
# pEC50 listing for each entry below
OUTCOME MEASURE: pEC50

MOLECULE	OUTCOME MEASURE	REPORTED MEASUREMENT
CC(O)(CNC(=O)c1ncc(C(F)(F)F)cc1N)C(F)(F)F (racemic)	pEC50	6.64
COc1nc(C(=O)NC[C@](C)(O)C(F)(F)F)c(N)cc1C(F)(F)F	pEC50	7.33
Cc1nc(C(=O)NCC(C)(O)C(F)(F)F)c(N)cc1C(F)(F)F (racemic)	pEC50	6.62
CC(C)(O)CNC(=O)c1nc(Br)c(C(F)(F)F)cc1N	pEC50	7.11
CNC(=O)c1cc(-c2ccco2)c(C(F)(F)F)cc1N	pEC50	5.73
COC(=O)c1cc(-c2ccco2)c(C(F)(F)F)cc1N	pEC50	7.11
COC(=O)c1ccccc1N [METHYL ANTHRANILATE]	pEC50	4.52
COC(=O)c1ccc(C(F)(F)F)cc1N	pEC50	5.42
C[C@@](O)(CNC(=O)c1nc(Br)c(C(F)(F)F)cc1N)C(F)(F)F	pEC50	7.52
Nc1cc(C(F)(F)F)c(Br)nc1C(=O)NCCC(F)(F)F	pEC50	7.40
CCOc1nc(C(=O)NC[C@](C)(O)C(F)(F)F)c(N)cc1C(F)(F)F	pEC50	7.82
